Target: HA of virus A/Panama/2000/1999 (H3N2) (influenza A virus (H3N2))
Assay: cell-based or functional assay
readoutKind: Neutralization titer SK50 (µg/mL)
Provide the reading as a plain figure in µg/mL.

What Neutralization titer SK50 value was documented for this binder, CR8016 (antibody, V domains shown) VH: EVQLVESGGDLVQPGGSLRLSCSASEFSFSSYWMSWVRQAPGKGLEWVANMKQDGSEKYYVDSVKGRFTISRDNAKNSLYLQMNSLRGEDTAVYYCARGSCDDSWTGCHDAFDI VL: QSVVTQPPSVSGAPGQRVTISCTGSSSNIGAGYDVHWYQQLPGTAPKLLIYGNNNRPSGVPDRFSGSRSGPLALLAITGLQAEDEADYYCQSYDSSLSVYV ?
28.3

// data source = patent US20130309248A1
